- subject_of_test: CTCFL
- test_summary: pooled miR-30 sensor sort-seq; sequence = guide strand; also: reference of the scale not given here
- stated_conditions: shRNA
# cutoff -0.1 applies to sensor-assay potency score (higher = more potent); >= gives 1.0, < gives 0.0

TTGTATAAAAACATTTGTCTTT = 0.0
TTTCTTTGAAATATCCAGCTAC = 1.0
TTTGGGGACATTTTCGCCGTGT = 0.0
TTGAGGAGCATTTCACACCTTA = 1.0

Let's switch to this sequence now.
Incoming: Answer whether sensor-assay potency score (higher = more potent) of `TAAAGGTGAACCTTGCTCCTAT` is greater than or equal to -0.1.
Outgoing: 1.0

----------
- subject_of_test: ARHGAP21
- test_summary: pooled miR-30 sensor sort-seq; sequence = guide strand
- stated_conditions: shRNA
Assignment: determine reported sensor-assay potency score (higher = more potent) for the given sequences.
Give bare numbers.

Look over these answered cases.
TTTAGTATCATTGTGACACTGT = 0.875
TATCTGACTTGAATCTAGCTGA = 0.41
TTGTTGAGTCACTAGTAGCTGA = -0.152

// batch mode: one sensor-assay potency score (higher = more potent) value per listed entry
1. TAAATCTGAAGTACCAGCGTTT
2. TTTCATTGCAAACACACACTGC
3. TAAACTATCTAATCTTTCTTGT
4. TAGACTTCCACTATCTGACTTG
5. TTATTTTTTGAGACCTCGCAGG

Outgoing:
[0.202, -0.187, 0.258, 0.173, -0.693]

----------
- subject_of_test: FGA
- test_summary: pooled miR-30 sensor sort-seq; sequence = guide strand
- stated_conditions: shRNA
Assignment: determine reported sensor-assay potency score (higher = more potent) for the given sequences.
Numbers only.

Look over these answered cases.
TGTCTTTCCACAACCCTTGGGC = 0.289
TTTCTCTCCACTTCTCTAGCAA = 0.384

// batch mode: one sensor-assay potency score (higher = more potent) value per listed entry
1. TTTTTCTATGACTTTGCGCTTC
2. TAAAATTCAGTGATCCATCCAT

Outgoing:
-0.192
0.455

----------
- subject_of_test: LZTR1
- test_summary: pooled miR-30 sensor sort-seq; sequence = guide strand
- stated_conditions: shRNA
observed_property: sensor-assay potency score (higher = more potent)
Give bare numbers.

TATTTGATCTTGTCGGTGTAGA = 0.13
TATGATGTCCAGCAGCAGCTGC = -0.965
TACTCGACACTGTCCGAGCAGC = -1.08

// batch mode: one sensor-assay potency score (higher = more potent) value per listed entry
1. TAACAGGAGAACTGGAACCTGT
2. TTAGGGTAACAGGAGAACTGGA
3. TTTCACATCGAACCGCAGGAGG

Outgoing:
-1.05
-0.956
-1.16

Incoming: Value wanted: sensor-assay potency score (higher = more potent) (LZTR1) of entry `TCATTGAGCATGGTCTTCCCAT`
Outgoing: -0.632

----------
- subject_of_test: CHEK1
- test_summary: pooled miR-30 sensor sort-seq; sequence = guide strand
- stated_conditions: shRNA
observed_property: sensor-assay potency score (higher = more potent)
Numbers only.

// batch mode: one sensor-assay potency score (higher = more potent) value per listed entry
1. TTTTCTTCACTAGAAGCACTGT
2. TTTTCTGGTTTAATATCCCTGT
3. TTTGTTGTACCATCTATCTTTT
4. TTGTTGATATAGTAACCTGATT
5. TGATATAGTAACCTGATTCATA
6. TAACCTGATTCATACAACTTTT

Outgoing:
1: 0.254; 2: 0.0757; 3: -0.765; 4: -1.22; 5: -0.794; 6: -1.09

// batch mode: one sensor-assay potency score (higher = more potent) value per listed entry
1. TTAATCTTCAGGAAGTGTCTCT
2. TTTGTCTGCATCCAATTTGGTA
3. TAAAGTACCACACATCTTGTTC

Outgoing:
[0.552, -0.969, -0.726]

// batch mode: one sensor-assay potency score (higher = more potent) value per listed entry
1. TTCTGGTTTAATATCCCTGTGA
2. TTCCACAGGACCAAACATCAAC

Outgoing:
1. -0.58
2. -1.04
